condition-summary: mouse, in vivo, sc, 50 mg/kg
e = 2'-O-(2-methoxyethyl) (MOE); d = 2'-deoxy (DNA)
Recorded Lymphocyte by entry
Return type: number; implicit unit cells/μL.

For reference, reported Lymphocyte for ISIS 416867: MOE gapmer, nucleobases 1275 to 1318 of SEQ ID NO: 1 (Table 8) (antisense ACTGGCAGCGGACGGCATTG; MOE gapmer, wing and gap sizes not given here) stands at 6078

For reference, reported Lymphocyte for ISIS 412223: 5-10-5 MOE gapmer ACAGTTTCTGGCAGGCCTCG (sugars from the 5' end e5 d10 e5, backbone and methylation of C not given here) stands at 4599

====

test-name: Tolerability in Sprague-Dawley rats: body weight and organ weight (Example 44)
Format: in vivo
condition-summary: 50 mg/kg s.c. twice per week for 6 weeks, end of study
Strand notation (5' to 3'): a small letter for the sugar, then the base; units joined by * are phosphorothioate-linked, units joined directly phosphodiester-linked; [ ] holds rarer units or linkages, { } end groups; capitals alone tell only the bases. e = 2'-O-(2-methoxyethyl) (MOE); [5mC] = 5-methylcytosine; d = 2'-deoxy (DNA)
Recorded Change in Spleen weight by entry

>>> result("ISIS 449707: 3-8-3, 4-8-4, 2-10-2, 3-10-3 or 4-10-4 MOE microwalk gapmer (Table 46) (antisense e[5mC]*eA*e[5mC]*eA*dG*dT*dT*dT*d[5mC]*dT*dG*dG*e[5mC]*eA*eG*eG)")
"+400%"
>>> result("ISIS 449711: 3-8-3, 4-8-4, 2-10-2, 3-10-3 or 4-10-4 MOE microwalk gapmer (Table 46) (antisense eA*e[5mC]*dA*dG*dT*dT*dT*d[5mC]*dT*dG*dG*d[5mC]*eA*eG)")
"+327%"
>>> result("ISIS 449709: 3-8-3, 4-8-4, 2-10-2, 3-10-3 or 4-10-4 MOE microwalk gapmer (Table 46) (antisense eG*e[5mC]*eA*e[5mC]*dA*dG*dT*dT*dT*d[5mC]*dT*dG*dG*d[5mC]*eA*eG*eG*e[5mC])")
"+231%"

Now for the substance whose Change in Spleen weight we want.
For reference, reported Change in Spleen weight for ISIS 449708: 3-8-3, 4-8-4, 2-10-2, 3-10-3 or 4-10-4 MOE microwalk gapmer (Table 46) (antisense eA*e[5mC]*eA*dG*dT*dT*dT*d[5mC]*dT*dG*dG*e[5mC]*eA*eG) stands at +259%

====

Test system: human Factor 11 mRNA
test-name: Antisense inhibition of human Factor 11 in HepG2 cells, lipofectin, 75 nM (Example 1)
Type: cell-based
condition-summary: 75 nM antisense oligonucleotide, ~24 h, relative to untreated control cells, gapmers targeted to SEQ ID NO: 1
Strand notation (5' to 3'): a small letter for the sugar, then the base; units joined by * are phosphorothioate-linked, units joined directly phosphodiester-linked; [ ] holds rarer units or linkages, { } end groups; capitals alone tell only the bases. e = 2'-O-(2-methoxyethyl) (MOE); [5mC] = 5-methylcytosine; d = 2'-deoxy (DNA)
% inhibition of 70% or higher: yes (1). Under 70%: no (0).

>>> assigned_class("412221 (antisense eA*eT*e[5mC]*eA*eG*dT*dG*dT*d[5mC]*dA*dT*dG*dG*dT*dA*eA*eA*eA*eT*eG) [compound 412221]")
"no (0)"
>>> assigned_class("413495 (antisense eT*eT*eG*eG*e[5mC]*dT*dT*dT*d[5mC]*dT*dG*dG*dA*dG*dA*eG*eT*eA*eT*eT) [compound 413495]")
"no (0)"
>>> assigned_class("412247 (antisense eT*eA*eG*e[5mC]*e[5mC]*dG*dG*d[5mC]*dA*d[5mC]*dA*dG*dA*dT*d[5mC]*eA*eT*e[5mC]*eT*eT) [compound 412247]")
"yes (1)"

### Prompt Does 412208 (antisense eA*eG*eA*e[5mC]*eA*dA*dA*dT*dG*dT*dT*dA*d[5mC]*dG*dA*eT*eG*e[5mC]*eT*e[5mC]) [compound 412208] have a reported % inhibition of at least 70%?
### Response yes (1)

### Prompt Does 412250 (antisense eT*eG*eG*e[5mC]*eA*d[5mC]*dA*dG*dT*dG*dA*dA*d[5mC]*dT*d[5mC]*eA*eA*e[5mC]*eA*e[5mC]) [compound 412250] have a reported % inhibition of at least 70%?
### Response no (0)

### Prompt Does 412199 (antisense eT*eT*e[5mC]*eA*e[5mC]*dT*d[5mC]*dT*dT*dG*dG*d[5mC]*dA*dG*dT*eG*eT*eT*eT*e[5mC]) [compound 412199] have a reported % inhibition of at least 70%?
### Response no (0)

### Prompt Does 412223 (antisense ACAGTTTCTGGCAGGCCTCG; 5-10-5 MOE gapmer, further chemistry not given here) [compound 412223] have a reported % inhibition of at least 70%?
### Response yes (1)

### Prompt Does 413498 (antisense eG*e[5mC]*eA*eG*eA*dG*dT*dG*dT*dA*dG*dA*dT*dT*d[5mC]*e[5mC]*eT*eG*e[5mC]*eA) [compound 413498] have a reported % inhibition of at least 70%?
### Response no (0)

### Prompt Does 412212 (antisense e[5mC]*e[5mC]*eG*eG*eG*dA*dT*dG*dA*dT*dG*dA*dG*dT*dG*e[5mC]*eA*eG*eA*eT) [compound 412212] have a reported % inhibition of at least 70%?
### Response yes (1)

====

System: human Factor 11 mRNA
test-name: Antisense inhibition of human Factor 11 in HepG2 cells, lipofectin, 75 nM (Example 1)
Format: cell-based
condition-summary: 75 nM antisense oligonucleotide, ~24 h, relative to untreated control cells, gapmers targeted to SEQ ID NO: 1
Strand notation (5' to 3'): a small letter for the sugar, then the base; units joined by * are phosphorothioate-linked, units joined directly phosphodiester-linked; [ ] holds rarer units or linkages, { } end groups; capitals alone tell only the bases. e = 2'-O-(2-methoxyethyl) (MOE); [5mC] = 5-methylcytosine; d = 2'-deoxy (DNA)
% inhibition of 70% or higher: 1. Under 70%: -1.

Example entries and their recorded answers appear below.
>>> assigned_class("413469 (antisense eT*eG*e[5mC]*e[5mC]*e[5mC]*dT*dT*d[5mC]*dA*dT*dG*dT*d[5mC]*dT*dA*eG*eG*eT*e[5mC]*e[5mC]) [compound 413469]")
1
>>> assigned_class("413463 (antisense eG*eA*eG*eT*e[5mC]*dA*d[5mC]*dA*d[5mC]*dA*dT*dT*d[5mC]*dA*d[5mC]*e[5mC]*eA*eG*eA*eA) [compound 413463]")
1
>>> assigned_class("412197 (antisense eA*e[5mC]*eA*e[5mC]*eA*dT*dT*d[5mC]*dA*d[5mC]*d[5mC]*dA*dG*dA*dA*eA*e[5mC]*eT*eG*eA) [compound 412197]")
-1
>>> assigned_class("413491 (antisense eT*eT*eA*eG*eG*dT*dG*dA*d[5mC]*dT*d[5mC]*dT*dA*d[5mC]*d[5mC]*e[5mC]*e[5mC]*eA*eT*eA) [compound 413491]")
1
>>> assigned_class("412210 (antisense eT*eG*e[5mC]*eA*e[5mC]*dA*dG*dG*dA*dT*dT*dT*d[5mC]*dA*dG*eT*eG*eA*eA*eA) [compound 412210]")
1
>>> assigned_class("412207 (antisense e[5mC]*eG*eT*eG*eA*dA*dA*dA*dA*dG*dT*dG*dG*d[5mC]*dA*eG*eT*eG*eG*eA) [compound 412207]")
-1

### Prompt Does 412234 (antisense eG*eT*eT*eT*e[5mC]*d[5mC]*dA*dA*dT*dG*dA*dT*dG*dG*dA*eG*e[5mC]*e[5mC]*eT*e[5mC]) [compound 412234] have a reported % inhibition of at least 70%?
### Response -1

### Prompt Does 412218 (antisense eA*eA*e[5mC]*e[5mC]*eA*dG*dA*dA*dA*dG*dA*dG*d[5mC]*dT*dT*eT*eG*e[5mC]*eT*e[5mC]) [compound 412218] have a reported % inhibition of at least 70%?
### Response -1

### Prompt Does 413499 (antisense eA*eT*e[5mC]*eA*eT*dT*dT*dT*dT*d[5mC]*dA*dG*dG*dA*dA*eA*eG*eT*eG*eT) [compound 413499] have a reported % inhibition of at least 70%?
### Response -1

### Prompt Does 412201 (antisense e[5mC]*eA*eT*eT*eG*d[5mC]*dT*dT*dG*dA*dA*dA*dG*dA*dA*eT*eA*e[5mC]*e[5mC]*e[5mC]) [compound 412201] have a reported % inhibition of at least 70%?
### Response -1

====

test-name: Tolerability in CD1 mice: liver function, ALT, AST, bilirubin, albumin (Example 33)
condition-summary: plasma, 50 mg/kg s.c. twice a week, 4 weeks
recorded-metric: Bilirubin (mg/dL)
Return type: number; implicit unit mg/dL.

>>> readout_number("ISIS 416858: MOE gapmer, nucleobases 1275 to 1318 of SEQ ID NO: 1 (Table 8) (antisense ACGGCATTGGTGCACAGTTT; MOE gapmer, wing and gap sizes not given here)")
0.24
>>> readout_number("ISIS 416864: MOE gapmer, nucleobases 1275 to 1318 of SEQ ID NO: 1 (Table 8) (antisense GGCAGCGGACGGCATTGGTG; MOE gapmer, wing and gap sizes not given here)")
0.26

For reference, reported Bilirubin for ISIS 416838: MOE gapmer, nucleobases 1018 to 1042 of SEQ ID NO: 1 (Table 6) (antisense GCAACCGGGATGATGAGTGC; MOE gapmer, wing and gap sizes not given here) stands at 0.24
